assay: physchem
Recorded measurements of pKa, one per entry

{"MOLECULE": "Cn1c(=O)c2c(nc3n(CCCN4CCN(c5ccccc5)CC4)ccn23)n(C)c1=O", "pKa": 8.09}
{"MOLECULE": "Cn1c(=O)c2c(nc3n(CCCN4CCN(c5cccc(Cl)c5)CC4)c(-c4ccccc4)cn23)n(C)c1=O", "pKa": 10.6}
{"MOLECULE": "Cc1cn2c3c(=O)n(C)c(=O)n(C)c3nc2n1CCCN1CCN(c2cccc(Cl)c2Cl)CC1", "pKa": 7.61}
{"MOLECULE": "O=C1NC2(CCCc3ccccc32)C(=O)N1CCCN1CCc2ccccc2C1 (stereo not given)", "pKa": 10.9}
{"MOLECULE": "Cn1c(=O)c2c(nc3n(CCCN4CCN(c5ccccc5)CC4)c(-c4ccccc4)cn23)n(C)c1=O", "pKa": 8.79}

---

assay: physchem

{"COMPOUND": "COc1ccccc1N1CCN(CCCn2c(-c3ccccc3)cn3c4c(=O)n(C)c(=O)n(C)c4nc23)CC1", "pKa": 8.44}
{"COMPOUND": "O=C1NC2(CCc3ccccc32)C(=O)N1CCCN1CCN(c2cccc(C(F)(F)F)c2)CC1 (stereo not drawn)", "pKa": 9.96}
{"COMPOUND": "Cn1c(=O)c2c(nc3n(CCCN4CCN(c5cccc(Cl)c5)CC4)ccn23)n(C)c1=O", "pKa": 8.35}

---

assay: physchem
Use 10 as the dividing line for pKa, with the line itself on the true side and lower values as false.

{"COMPOUND": "Cc1cn2c3c(=O)n(C)c(=O)n(C)c3nc2n1CCCN1CCN(c2ccccc2)CC1", "DISCRETE_LABEL": "false"}
{"COMPOUND": "O=C1NC2(CCCc3ccccc32)C(=O)N1CCCN1CCN(c2cccc(C(F)(F)F)c2)CC1 (centres undefined)", "DISCRETE_LABEL": "true"}
{"COMPOUND": "O=C1NC2(CCc3ccccc32)C(=O)N1CCCN1CCN(c2ccccc2)CC1 (centres undefined)", "DISCRETE_LABEL": "true"}
{"COMPOUND": "COc1ccccc1N1CCN(CCCn2c(C)cn3c4c(=O)n(C)c(=O)n(C)c4nc23)CC1", "DISCRETE_LABEL": "false"}
{"COMPOUND": "COc1ccccc1N1CCN(CCCn2ccn3c4c(=O)n(C)c(=O)n(C)c4nc23)CC1", "DISCRETE_LABEL": "false"}
{"COMPOUND": "Cn1c(=O)c2c(nc3n(CCCN4CCc5ccccc5C4)c(-c4ccccc4)cn23)n(C)c1=O", "DISCRETE_LABEL": "true"}
{"COMPOUND": "O=C1NC2(CCc3ccccc32)C(=O)N1CCCN1CCc2ccccc2C1 (centres undefined)", "DISCRETE_LABEL": "true"}
{"COMPOUND": "O=C1NC2(CCCc3ccccc32)C(=O)N1CCCN1CCN(c2ccccc2)CC1 (centres undefined)", "DISCRETE_LABEL": "true"}
{"COMPOUND": "COc1ccccc1N1CCN(CCCN2C(=O)NC3(CCCc4ccccc43)C2=O)CC1 (centres undefined)", "DISCRETE_LABEL": "true"}

---

assay: physchem
Use 10 as the dividing line for pKa, with the line itself on the True side and lower values as False.

{"COMPOUND": "COc1ccccc1N1CCN(CCCN2C(=O)NC3(CCc4ccccc43)C2=O)CC1 (stereo not given)", "DISCRETE_LABEL": "False"}
{"COMPOUND": "O=C1NC2(CCCc3ccccc32)C(=O)N1CCCN1CCN(c2cccc(Cl)c2)CC1 (stereo not given)", "DISCRETE_LABEL": "True"}
{"COMPOUND": "Cc1cn2c3c(=O)n(C)c(=O)n(C)c3nc2n1CCCN1CCN(c2cccc(Cl)c2)CC1", "DISCRETE_LABEL": "False"}
{"COMPOUND": "Cc1cn2c3c(=O)n(C)c(=O)n(C)c3nc2n1CCCN1CCc2ccccc2C1", "DISCRETE_LABEL": "False"}
{"COMPOUND": "O=C1NC2(CCc3ccccc32)C(=O)N1CCCN1CCN(c2cccc(Cl)c2)CC1 (stereo not given)", "DISCRETE_LABEL": "True"}
